tested on: Kallikrein-4 (Homo sapiens)
Sequence (Q9Y5K2 whole entry): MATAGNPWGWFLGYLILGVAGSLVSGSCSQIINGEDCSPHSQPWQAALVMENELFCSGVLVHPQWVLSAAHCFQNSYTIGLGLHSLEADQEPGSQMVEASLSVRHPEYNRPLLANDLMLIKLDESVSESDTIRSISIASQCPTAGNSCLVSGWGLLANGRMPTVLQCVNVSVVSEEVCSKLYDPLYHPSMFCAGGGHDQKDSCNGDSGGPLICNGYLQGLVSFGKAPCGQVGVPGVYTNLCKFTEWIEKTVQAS
procedure text: Inhibition of KLK4 (unknown origin) expressed in Sf9 cells at 25 nM using FVQRpNA substrate by spectrophotometry method
Calls of active or inactive are those of the source. The calls are words filed in the database; no cut-off is given here. Bridge positions count the residues as written; N and C are the ends. Square brackets hold non-standard residues; d marks the D form. Peptide text beside a SMILES is read from it. Bip = N[C@@H](Cc1ccc(-c2ccccc2)cc1)C(=O)O
Pick one and only one: active, inactive

[[record]]
molecule = "CC[C@H](C)[C@@H]1NC(=O)[C@@H]2CCCN2C(=O)[C@@H]2CCCN2C(=O)[C@H](Cc2ccc(-c3ccccc3)cc2)NC(=O)[C@H](CO)NC(=O)[C@H](CCCNC(=N)N)NC(=O)[C@H]([C@@H](C)O)NC(=O)[C@@H]2CSSC[C@H](NC1=O)C(=O)N[C@@H](CC(N)=O)C(=O)N1CCC[C@H]1C(=O)N[C@@H](CC(N)=O)C(=O)NCC(=O)N[C@@H]([C@@H](C)O)C(=O)N2 (cyclo([Bip]PPICNPNGTCTRS); disulfide 5-11)"
label = "active"

[[record]]
molecule = "CC[C@H](C)[C@@H]1NC(=O)[C@@H]2CCCN2C(=O)[C@@H]2CCCN2C(=O)[C@H](Cc2ccccc2)NC(=O)[C@H](CO)NC(=O)[C@H](CCCNC(=N)N)NC(=O)[C@H]([C@@H](C)O)NC(=O)[C@@H]2CSSC[C@H](NC1=O)C(=O)N[C@@H](CC(N)=O)C(=O)N1CCC[C@H]1C(=O)N[C@@H](CC(N)=O)C(=O)NCC(=O)N[C@@H]([C@@H](C)O)C(=O)N2 (cyclo(CNPNGTCTRSFPPI); disulfide 1-7)"
label = "active"

[[record]]
molecule = "CC[C@H](C)[C@@H]1NC(=O)[C@@H]2CCCN2C(=O)[C@@H]2CCCN2C(=O)[C@H](CCC(=O)O)NC(=O)[C@H](CO)NC(=O)[C@H](CCCNC(=N)N)NC(=O)[C@H]([C@@H](C)O)NC(=O)[C@@H]2CSSC[C@H](NC1=O)C(=O)N[C@@H](CC(N)=O)C(=O)N1CCC[C@H]1C(=O)N[C@@H](CC(N)=O)C(=O)NCC(=O)N[C@@H]([C@@H](C)O)C(=O)N2 (cyclo(CNPNGTCTRSEPPI); disulfide 1-7)"
label = "inactive"

[[record]]
molecule = "CC[C@H](C)[C@@H]1NC(=O)[C@@H]2CCCN2C(=O)[C@@H]2CCCN2C(=O)[C@H](CC(=O)O)NC(=O)[C@H](CO)NC(=O)[C@H](CCCNC(=N)N)NC(=O)[C@H]([C@@H](C)O)NC(=O)[C@@H]2CSSC[C@H](NC1=O)C(=O)N[C@@H](CC(N)=O)C(=O)N1CCC[C@H]1C(=O)N[C@@H](CC(N)=O)C(=O)NCC(=O)N[C@@H]([C@@H](C)O)C(=O)N2 (cyclo(CNPNGTCTRSDPPI); disulfide 1-7)"
label = "inactive"


# ---- query molecule ----
Ask: Answer briefly: the call reported for CC[C@H](C)[C@@H]1NC(=O)[C@@H]2CCCN2C(=O)[C@@H]2CCCN2C(=O)[C@H](CC(N)=O)NC(=O)[C@H](CO)NC(=O)[C@H](CCCNC(=N)N)NC(=O)[C@H]([C@@H](C)O)NC(=O)[C@@H]2CSSC[C@H](NC1=O)C(=O)N[C@@H](CC(N)=O)C(=O)N1CCC[C@H]1C(=O)N[C@@H](CC(N)=O)C(=O)NCC(=O)N[C@@H]([C@@H](C)O)C(=O)N2 (cyclo(CNPNGTCTRSNPPI); disulfide 1-7) in this assay.
Result: active
